What MIC50 was measured for each of the following?
# System: Streptococcus agalactiae
# method: Antibacterial activity against Streptococcus agalactiae clinical isolate by broth microdilution method
# Type: functional
Only the number, expressed in µg/mL, is required.

For reference, reported MIC50 for `CCCCCCCCCCNCCN[C@@]1(C)C[C@H](O[C@H]2[C@H](Oc3c4cc5cc3Oc3ccc(cc3Cl)[C@@H](O)[C@@H](NC(=O)[C@@H](CC(C)C)NC)C(=O)N[C@@H](CC(N)=O)C(=O)N[C@H]5C(=O)N[C@H]3C(=O)N[C@H](C(=O)N[C@H](C(=O)O)c5cc(O)c(CNCP(=O)(O)O)c(O)c5-c5cc3ccc5O)[C@H](O)c3ccc(c(Cl)c3)O4)O[C@H](CO)[C@@H](O)[C@@H]2O)O[C@@H](C)[C@H]1O` stands at 0.06

Field MIC50 (entry `CN[C@H](CC(C)C)C(=O)N[C@H]1C(=O)N[C@@H](CC(N)=O)C(=O)N[C@H]2C(=O)N[C@H]3C(=O)N[C@H](C(=O)N[C@H](C(=O)O)c4cc(O)cc(O)c4-c4cc3ccc4O)[C@H](O)c3ccc(c(Cl)c3)Oc3cc2cc(c3O[C@@H]2O[C@H](CO)[C@@H](O)[C@H](O)[C@H]2O[C@H]2C[C@](C)(N)[C@H](O)[C@H](C)O2)Oc2ccc(cc2Cl)[C@H]1O` ) reads 0.5

Looking up `CC(=O)NC[C@H]1CN(c2ccc(N3CCOCC3)c(F)c2)C(=O)O1` , I see its MIC50 listed as 1

The molecule `C[C@H]1COc2c(N3CCN(C)CC3)c(F)cc3c(=O)c(C(=O)O)cn1c23.C[C@H]1COc2c(N3CCN(C)CC3)c(F)cc3c(=O)c(C(=O)O)cn1c23.O` showed MIC50 equal to 0.5

Entry `CCCCCCCCCC(=O)N[C@@H](Cc1c[nH]c2ccccc12)C(=O)N[C@H](CC(N)=O)C(=O)N[C@@H](CC(=O)O)C(=O)N[C@@H]1C(=O)NCC(=O)N[C@@H](CCCN)C(=O)N[C@@H](CC(=O)O)C(=O)N[C@H](C)C(=O)N[C@@H](CC(=O)O)C(=O)NCC(=O)N[C@H](CO)C(=O)N[C@@H]([C@H](C)CC(=O)O)C(=O)N[C@@H](CC(=O)c2ccccc2N)C(=O)O[C@@H]1C` ; MIC50 = 0.25
